Target: Man(a1-3)[Man(a1-6)]Man(a1-6)[Man(a1-3)]Man(b1-4)GlcNAc(b1-4)GlcNAc
Assay: glycan array binding signal (z-score within array); higher = stronger binding
Settings: glycan notation: IUPAC condensed, linker removed
The sample as a whole holds a higher share of the strongest signals than the screen did.
measurement label: glycan array binding signal (z-score)

{"binder": "UDA (Urtica dioica), P11218 (protein) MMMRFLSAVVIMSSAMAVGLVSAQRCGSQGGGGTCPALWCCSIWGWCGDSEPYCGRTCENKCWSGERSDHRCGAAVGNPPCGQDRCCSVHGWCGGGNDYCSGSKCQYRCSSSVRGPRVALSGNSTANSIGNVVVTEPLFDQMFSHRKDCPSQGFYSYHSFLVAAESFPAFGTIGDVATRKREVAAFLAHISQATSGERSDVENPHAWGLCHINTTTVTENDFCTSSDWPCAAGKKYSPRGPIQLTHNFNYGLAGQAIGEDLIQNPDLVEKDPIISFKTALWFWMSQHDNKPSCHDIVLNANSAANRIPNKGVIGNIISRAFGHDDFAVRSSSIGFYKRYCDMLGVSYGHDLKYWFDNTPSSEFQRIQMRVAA", "measurement label": "glycan array binding signal (z-score)", "observed value": 5.89}
